assay: chemical genetic growth profiling, strain panel (AID 1159580);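 further: tested at 20 µM; growth read once vehicle control cultures reached saturation at 30 °C; 1 = growth at the plate median or of vehicle wells; lower values mean less growth of the strain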; conditions: S. cerevisiae deletion strains, growth OD, locus YJL157C, strain FAR1, active compounds read low
The campaign covered roughly 5,500 compounds. About 2,000 (36%) were called active. Roughly 18% stayed inconclusive and do not appear here. The list shows a part of the results.
READOUT TYPE: normalized growth
Answer with a bare number; do not write a unit.

The cases that follow already have their normalized growth on record.
• COc1ccc(CC2CCC(=NOC(=O)c3ccc(C(C)(C)C)cc3)CC2)cc1 (stereo unspecified) = 0.955
• O=[N+]([O-])c1ccc(-c2csc(Nc3ccncc3)n2)cc1 = 0.996
• S=C(NNc1ccccc1)Nc1cc(Cl)ccc1Cl = 0.947
• COc1cc(CC/C(C)=N\O)ccc1OCc1ccc(Cl)c(Cl)c1 = 0.823

Per the record, O=C1CSC(c2ccc(C(F)(F)F)cc2)N1c1ccc(C(F)(F)F)cc1 (stereo unspecified) has normalized growth of 0.976
